tested on: PBM cells; assay: Cell viability resazurin assay, PBM cells; format: cell-based, human; conditions: 24 h incubation, 2.5 µM, ± SD
viability of PBM cells relative to control by entry:
Reported Property: viability of PBM cells relative to control (%)

Entry Smiles	Observed Value
CCOP(OCC)OCC.O=C1C=CC(=O)[N-]1.[C-]#[O+].[Fe+2].c1cc[cH-]c1	104.31
O=C1C=CC(=O)[N-]1.[C-]#[O+].[C-]#[O+].[Fe+2].c1cc[cH-]c1	99.3
O=C1C=CC(=O)[N-]1.[C-]#[O+].[Fe+2].c1cc[cH-]c1.c1coc(P(c2ccco2)c2ccco2)c1	97.1
O=C1C=CC(=O)[N-]1.[C-]#[O+].[Fe+2].c1cc[cH-]c1.c1ccc(P(c2ccccc2)c2ccccc2)cc1	101.97
O=C1C=CC(=O)[N-]1.[C-]#[O+].[Fe+2].c1cc[cH-]c1.c1ccc(OP(Oc2ccccc2)Oc2ccccc2)cc1	94.41
